Target: human brain MAO B (Homo sapiens, UniProt P27338)
Sequence (P27338 1-520): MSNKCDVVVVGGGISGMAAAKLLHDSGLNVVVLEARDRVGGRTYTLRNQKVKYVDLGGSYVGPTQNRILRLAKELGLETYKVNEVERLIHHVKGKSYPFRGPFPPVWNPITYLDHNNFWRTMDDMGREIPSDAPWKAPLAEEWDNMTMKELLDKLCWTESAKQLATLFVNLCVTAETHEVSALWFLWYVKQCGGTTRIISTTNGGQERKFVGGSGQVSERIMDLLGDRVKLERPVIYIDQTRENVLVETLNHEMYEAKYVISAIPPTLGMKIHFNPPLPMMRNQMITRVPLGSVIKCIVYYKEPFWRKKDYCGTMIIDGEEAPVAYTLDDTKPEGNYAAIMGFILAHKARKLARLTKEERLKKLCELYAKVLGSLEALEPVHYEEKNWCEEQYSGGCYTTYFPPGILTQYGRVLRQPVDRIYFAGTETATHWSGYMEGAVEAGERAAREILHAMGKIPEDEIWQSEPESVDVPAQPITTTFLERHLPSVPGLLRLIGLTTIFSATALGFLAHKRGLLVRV
Measurement Kind: pIC50
To interpret pIC50, take it as minus log10 of a concentration measured in moles per litre.

The recorded pIC50 for O=C1CCC(NC(=O)Cc2ccccc2)C(=O)N1 (stereo not shown) [PAPD] is 4.70

* * *

Target: human platelet MAO B (Homo sapiens)
Construct: The platelet pellet was resuspended in 5.0 ml of 0.1 M phosphate buffer with pH 7.4 by sonication
Sequence (P27338 1-520): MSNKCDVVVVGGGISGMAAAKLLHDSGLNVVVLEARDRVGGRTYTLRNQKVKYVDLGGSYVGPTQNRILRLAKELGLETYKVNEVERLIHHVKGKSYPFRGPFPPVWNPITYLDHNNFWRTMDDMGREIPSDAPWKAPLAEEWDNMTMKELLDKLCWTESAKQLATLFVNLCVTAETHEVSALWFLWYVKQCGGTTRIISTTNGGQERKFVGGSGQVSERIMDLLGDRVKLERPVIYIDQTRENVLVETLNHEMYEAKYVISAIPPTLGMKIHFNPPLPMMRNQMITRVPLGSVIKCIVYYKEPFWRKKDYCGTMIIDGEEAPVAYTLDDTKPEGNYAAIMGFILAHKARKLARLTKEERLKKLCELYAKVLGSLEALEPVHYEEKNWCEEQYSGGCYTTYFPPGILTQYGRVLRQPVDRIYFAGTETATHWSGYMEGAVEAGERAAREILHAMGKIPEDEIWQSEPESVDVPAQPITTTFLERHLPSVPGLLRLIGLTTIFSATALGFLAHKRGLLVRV
Experiment: Inhibition of platelet MAO B activity in vitro (human platelets)
Conditions: platelets from 6 subjects, duplicate assays; SD 34.5×10^-6
Measurement Kind: pIC50
# pIC50 = -log10(concentration in molar units)

Form: compound = O=C1CCC(NC(=O)Cc2ccccc2)C(=O)N1 (stereo not shown) ; pIC50 = 4.20
